pIC50: −log10 of the molar value.
What follows is literature data on pIC50 for Serine protease 1 (Homo sapiens, UniProt P07477).
VALUE_KIND: pIC50

COMPOUND | VALUE_KIND | ENDPOINT_RESULT
CNCCN(C)Cc1ccc(C(=O)Nc2ccc(Cl)cc2C(=O)Nc2ccc(Cl)cn2)cc1 | pIC50 | < 4.96
CN1CCN=C1N(C)Cc1ccc(C(=O)Nc2ccc(Cl)cc2C(=O)Nc2ccc(Cl)cn2)cc1 | pIC50 | < 4.96
CN(C)CCN(C)Cc1ccc(C(=O)Nc2ccc(Cl)cc2C(=O)Nc2ccc(Cl)cn2)cc1 | pIC50 | < 4.96
NC1=NCCCCN1Cc1ccc(C(=O)Nc2ccc(Cl)cc2C(=O)Nc2ccc(Cl)cn2)cc1 | pIC50 | < 4.96
N=C(N)N1CCCC(C[C@@H](NS(=O)(=O)Cc2ccccc2)C(=O)NCC(=O)N[C@H]2CCCN(C(=N)N)C2O)C1 (stereo in doubt) | pIC50 | 7.51
N=C(N)NCCCC(NC(=O)CN1CCN(S(=O)(=O)c2ccc3c(Cl)cccc3c2)CC1=O)C(=O)c1nccs1 (stereo unspecified) | pIC50 | 7.69
CN(Cc1ccc(C(=O)Nc2ccc(Cl)cc2C(=O)Nc2ccc(Cl)cn2)cc1)C(=N)c1ccccc1 | pIC50 | < 4.96
N=C(N)c1cccc(OCC(=O)Nc2ccc(C(=O)N3CCOCC3)cc2)c1 | pIC50 | < 5.00
CN(CCN(C)C(=N)N)Cc1ccc(C(=O)Nc2ccc(Cl)cc2C(=O)Nc2ccc(Cl)cn2)cc1 | pIC50 | < 4.96
O=C(Nc1ccc(Cl)cc1C(=O)Nc1ccc(Cl)cn1)c1ccc(CN2CCOCC2)cc1 | pIC50 | < 4.96
N=C(N)c1cccc(OCC(=O)Nc2ccc(C(=O)N3CCCC3C(=O)O)cc2)c1 (stereo unspecified) | pIC50 | < 5.00

====

Here's a roundup of IC50 values tested on Serine protease 1 (Homo sapiens), taken from various published works.
Sequence (P07477 whole entry): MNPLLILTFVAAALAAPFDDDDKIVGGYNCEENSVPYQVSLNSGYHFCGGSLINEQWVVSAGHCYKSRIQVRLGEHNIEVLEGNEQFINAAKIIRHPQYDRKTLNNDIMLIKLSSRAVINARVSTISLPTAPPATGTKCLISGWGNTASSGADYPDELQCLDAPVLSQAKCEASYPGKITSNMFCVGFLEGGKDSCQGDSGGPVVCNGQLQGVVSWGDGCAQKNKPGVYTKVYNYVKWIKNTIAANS

MOLECULE | REL | IC50 / nM
N=C(N)c1cccc(C(=O)N[C@H](C(=O)Nc2ccc(-c3ccccc3S(N)(=O)=O)cc2)C2CCCCC2)c1 | > | 7930
CC(C)(C)NC(=O)N1CCN(C(=O)N2C(=O)[C@H](CCCN=C(N)N)C2C(=O)O)CC1 (single isomer, unassigned) | = | 4.5
N=C(N)c1cccc(C2Oc3ccccc3N(CCCCCN3CCCCC3)C2=O)c1 (stereo not given) | = | 990
COc1ccc2ccc(S(=O)(=O)NC(Cc3ccc4c(N)nccc4c3)C(=O)N3CCC(C)CC3)cc2c1 (stereo not given) | = | 27000
Cc1cc(C(=O)Nc2ccc(-c3ccccc3S(N)(=O)=O)cc2)n(-c2cc3ccccc3cc2C#N)n1 | > | 11000
C[N+]1(Cc2ccc(C(=O)Nc3ccc(Cl)cc3C(=O)Nc3ccc(Cl)cn3)cc2)CCCC1 | > | 11000
COc1ccc(OC(=O)c2ccc(NC(=N)N)cc2)cc1 | = | 19
CC(=N)NCc1ccc(C(=O)Nc2ccc(Cl)cc2C(=O)Nc2ccc(Cl)cn2)cc1 | > | 11000
N=C(N)N1CCC[C@H](NC(=O)CN2CCC(NS(=O)(=O)Cc3ccccc3)C2=O)C1O (stereo not given in full) | = | 538
NS(=O)(=O)c1ccccc1-c1ccc(C(=O)Nc2ccccc2C(=O)Nc2ccc(Br)cn2)cc1 | > | 10000
